molecular target: GST-tagged PARP6 (recombinant) (Homo sapiens); construct: recombinant GST fusion with HRV3C site in the linker, 98 kDa; intact PARP6 71 kDa after cleavage; assay: fluorescence polarization competition binding
Sequence (Q2NL67 whole entry, the tested form may be a part): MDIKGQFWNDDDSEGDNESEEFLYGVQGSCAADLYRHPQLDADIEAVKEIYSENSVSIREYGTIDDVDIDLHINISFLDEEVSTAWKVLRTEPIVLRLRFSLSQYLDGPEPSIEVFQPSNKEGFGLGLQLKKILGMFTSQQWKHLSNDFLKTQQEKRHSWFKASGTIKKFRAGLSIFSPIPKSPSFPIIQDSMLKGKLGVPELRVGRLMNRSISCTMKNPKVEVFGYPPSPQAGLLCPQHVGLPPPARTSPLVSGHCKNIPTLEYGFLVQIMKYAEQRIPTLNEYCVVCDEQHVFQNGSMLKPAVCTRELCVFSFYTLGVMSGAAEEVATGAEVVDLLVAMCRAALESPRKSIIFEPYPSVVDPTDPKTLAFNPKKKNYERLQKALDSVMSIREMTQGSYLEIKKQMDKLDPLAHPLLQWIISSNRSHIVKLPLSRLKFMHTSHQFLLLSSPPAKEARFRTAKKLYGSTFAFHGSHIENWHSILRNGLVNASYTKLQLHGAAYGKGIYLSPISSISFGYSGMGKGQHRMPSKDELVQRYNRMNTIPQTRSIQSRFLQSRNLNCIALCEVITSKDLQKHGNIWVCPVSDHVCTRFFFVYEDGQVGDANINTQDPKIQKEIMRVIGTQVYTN
Recorded Endpoint: IC50 (nM)
Numbers only, in nM.

Q: # query: IC50 of entry "C#CCCC1(CCC(=O)Nc2cnc(N3CCN(C(=O)c4cccc(Cc5n[nH]c(=O)c6ccccc56)c4)CC3)c(C#N)c2)N=N1"
Ans: 230

###

target: PARP1 (recombinant) (Homo sapiens); construct: recombinant; assay: fluorescence polarization competition binding
Sequence (P09874 2-1014): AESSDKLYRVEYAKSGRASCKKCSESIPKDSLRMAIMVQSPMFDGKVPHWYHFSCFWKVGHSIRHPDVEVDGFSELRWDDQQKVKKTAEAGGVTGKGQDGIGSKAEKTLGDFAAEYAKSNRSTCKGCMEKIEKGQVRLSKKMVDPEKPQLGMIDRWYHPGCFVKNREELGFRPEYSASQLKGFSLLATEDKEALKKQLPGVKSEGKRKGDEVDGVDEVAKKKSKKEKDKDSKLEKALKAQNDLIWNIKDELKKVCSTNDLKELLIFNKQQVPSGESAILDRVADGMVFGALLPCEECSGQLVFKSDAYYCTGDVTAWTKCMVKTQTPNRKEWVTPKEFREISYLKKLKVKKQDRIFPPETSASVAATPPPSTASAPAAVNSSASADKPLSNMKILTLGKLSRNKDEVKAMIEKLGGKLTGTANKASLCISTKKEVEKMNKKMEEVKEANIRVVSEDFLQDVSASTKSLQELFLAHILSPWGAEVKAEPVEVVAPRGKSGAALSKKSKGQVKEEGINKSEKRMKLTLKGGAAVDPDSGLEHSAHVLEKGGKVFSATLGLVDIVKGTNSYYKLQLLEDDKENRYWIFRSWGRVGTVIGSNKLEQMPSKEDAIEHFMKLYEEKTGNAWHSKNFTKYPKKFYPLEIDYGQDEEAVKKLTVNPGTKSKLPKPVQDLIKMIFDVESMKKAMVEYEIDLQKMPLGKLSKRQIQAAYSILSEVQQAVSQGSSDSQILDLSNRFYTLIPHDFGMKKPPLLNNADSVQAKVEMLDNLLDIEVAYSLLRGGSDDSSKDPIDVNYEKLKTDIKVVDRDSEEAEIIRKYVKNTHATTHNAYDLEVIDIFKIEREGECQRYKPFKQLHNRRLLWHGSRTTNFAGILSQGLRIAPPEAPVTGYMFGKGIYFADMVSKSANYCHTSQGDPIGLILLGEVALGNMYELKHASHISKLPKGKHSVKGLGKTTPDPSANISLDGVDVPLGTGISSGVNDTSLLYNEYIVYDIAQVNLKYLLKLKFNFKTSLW
Recorded Endpoint: pIC50
Numbers only, as −log10 of the molar value.

Q: Which pIC50 is reported for this compound? "C#CCCC1(CCC(=O)Nc2cnc(N3CCN(C(=O)c4cccc(Cc5n[nH]c(=O)c6ccccc56)c4)CC3)c(C#N)c2)N=N1"
Ans: 7.42
